Cited source: patent US9776995B2

molecular target: Nav 1.7 (Homo sapiens (Human), UniProt Q15858); assay: in-vitro Nav 1.7 PX data; type: cell-based; conditions: in-vitro PX
Sequence (Q15858 whole entry): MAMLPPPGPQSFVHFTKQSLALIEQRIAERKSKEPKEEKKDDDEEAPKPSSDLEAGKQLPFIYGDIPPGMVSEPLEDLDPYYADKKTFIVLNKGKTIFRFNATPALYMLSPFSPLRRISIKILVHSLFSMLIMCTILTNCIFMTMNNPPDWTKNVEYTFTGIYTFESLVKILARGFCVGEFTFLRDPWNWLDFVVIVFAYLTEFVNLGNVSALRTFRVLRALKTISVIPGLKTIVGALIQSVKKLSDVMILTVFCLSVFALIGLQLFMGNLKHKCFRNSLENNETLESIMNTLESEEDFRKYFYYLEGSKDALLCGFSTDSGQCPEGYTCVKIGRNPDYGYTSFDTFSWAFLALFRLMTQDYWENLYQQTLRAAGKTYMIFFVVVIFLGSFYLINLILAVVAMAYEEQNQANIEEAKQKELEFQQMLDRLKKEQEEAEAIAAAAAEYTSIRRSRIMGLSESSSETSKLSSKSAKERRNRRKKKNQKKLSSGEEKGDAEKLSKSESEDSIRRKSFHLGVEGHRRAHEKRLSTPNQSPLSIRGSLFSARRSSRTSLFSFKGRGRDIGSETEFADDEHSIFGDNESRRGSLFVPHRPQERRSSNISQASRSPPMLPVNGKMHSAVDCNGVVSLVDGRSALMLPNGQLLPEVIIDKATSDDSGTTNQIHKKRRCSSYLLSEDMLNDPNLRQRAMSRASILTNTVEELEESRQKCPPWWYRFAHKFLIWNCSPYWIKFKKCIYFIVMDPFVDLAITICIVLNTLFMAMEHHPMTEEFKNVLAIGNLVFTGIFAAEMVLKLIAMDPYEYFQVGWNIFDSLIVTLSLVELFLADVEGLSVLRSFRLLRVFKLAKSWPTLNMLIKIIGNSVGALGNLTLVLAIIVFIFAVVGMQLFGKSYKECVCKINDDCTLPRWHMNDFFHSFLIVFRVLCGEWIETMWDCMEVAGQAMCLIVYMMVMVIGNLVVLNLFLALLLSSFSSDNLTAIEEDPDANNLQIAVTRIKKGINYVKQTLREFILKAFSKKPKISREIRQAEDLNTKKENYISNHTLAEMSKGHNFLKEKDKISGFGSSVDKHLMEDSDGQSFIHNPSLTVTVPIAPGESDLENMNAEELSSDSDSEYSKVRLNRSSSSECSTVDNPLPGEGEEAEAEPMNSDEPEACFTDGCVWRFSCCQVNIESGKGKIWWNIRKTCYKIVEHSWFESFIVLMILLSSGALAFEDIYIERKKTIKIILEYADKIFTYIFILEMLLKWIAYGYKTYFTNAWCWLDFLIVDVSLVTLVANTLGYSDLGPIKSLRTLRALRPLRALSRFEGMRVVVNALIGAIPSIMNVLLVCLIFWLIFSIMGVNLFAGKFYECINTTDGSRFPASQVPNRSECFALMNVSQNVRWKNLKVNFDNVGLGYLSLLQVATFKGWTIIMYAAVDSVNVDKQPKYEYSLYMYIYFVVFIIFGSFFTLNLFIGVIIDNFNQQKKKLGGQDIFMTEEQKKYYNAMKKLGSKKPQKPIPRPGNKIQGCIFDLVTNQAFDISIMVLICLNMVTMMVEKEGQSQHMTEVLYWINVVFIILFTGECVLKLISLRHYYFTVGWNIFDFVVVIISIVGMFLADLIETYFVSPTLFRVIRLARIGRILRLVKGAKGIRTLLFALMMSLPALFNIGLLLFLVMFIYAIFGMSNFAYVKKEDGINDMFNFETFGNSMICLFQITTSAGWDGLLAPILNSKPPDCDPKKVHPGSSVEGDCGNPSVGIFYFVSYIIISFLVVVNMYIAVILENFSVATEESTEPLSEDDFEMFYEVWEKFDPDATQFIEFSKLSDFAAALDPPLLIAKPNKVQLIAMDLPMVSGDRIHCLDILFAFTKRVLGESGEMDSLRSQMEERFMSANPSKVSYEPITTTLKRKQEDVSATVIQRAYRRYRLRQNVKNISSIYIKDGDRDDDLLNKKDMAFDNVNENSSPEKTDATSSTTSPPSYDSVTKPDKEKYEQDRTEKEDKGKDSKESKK
Recorded pIC50 for the following molecules
On this scale, pIC50 is minus log10 of a concentration expressed in M (mol/L).

## Task Quick one: pIC50 for COc1cc(-c2ccc(C)c(Cl)c2)c(C#N)cc1-c1nccc2cc(S(=O)(=O)Nc3nncs3)ccc12 [Example 229] ?
## Result 7.69

## Task Next entry: COc1cc(-c2cccc(F)n2)c(F)cc1-c1nccc2cc(S(=O)(=O)Nc3nncs3)ccc12 [Example 212]
## Result 5.86

----------
Recorded IC50 for the following molecules
biological target: Nav 1.7 (Homo sapiens (Human), UniProt Q15858); assay: in-vitro Nav 1.7 PX data; format: cell-based; details: in-vitro PX data

>>> result_value("COc1cc(Cl)c(-c2cccc(F)c2)cc1-c1nccc2cc(S(=O)(=O)Nc3ccon3)ccc12 [Example 121]")
"91.7 nM"
>>> result_value("COc1cc(Br)c(Cl)cc1-c1nccc2cc(S(=O)(=O)Nc3ccon3)ccc12 [Example 117]")
"108 nM"

## Task Quick one: IC50 for COc1cc(-c2cccc(F)c2)c(Cl)cc1-c1nccc2cc(S(=O)(=O)Nc3cccnn3)ccc12 [Example 120] ?
## Result 141 nM

## Task Next entry: Cn1nccc1-c1cc(-c2cc(F)cc(F)c2)ccc1-c1nccc2cc(S(=O)(=O)Nc3ccon3)ccc12 [Example 4, 2,2,2-TRIFLUOROACETATE]
## Result 148 nM

## Task Next entry: COc1cc(-c2ccc(F)cc2)c(C#N)cc1-c1nccc2cc(S(=O)(=O)Nc3ccon3)ccc12 [Example 106]
## Result 62.5 nM
